Taken from patent US6395275.

subject.of.test: T1, recombinant gp120 of HIV-1 strain IIIb (HIV-1 strain IIIb, UniProt P04578 33-511)
T1 construct: domain: gp120; also called IIIb-derived gp120; gp 120 (IIIB strain)
measurement.description: SPR BIAcore, gp120 on chip;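 note: fab fragments flowed at 0.5 to 10 ug/ml over immobilized gp120, resonance units tracked during association and dissociation, equilibrium constants derived from the rate constants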
readout: Kd (nM)
Field: numeric (nM). Do not append units.

Task: Data request, read-out Kd, for composite Fab 4H/L42-1 (Fab, V domains shown) VH: LEQSGAEVKKPGASVKVSCQASGYRFSNFVIHWVRQAPGQRFEWMGWINPYNGNKEFSAKFQDRVTFTADTSANTAYMELRSLRSADTAVYYCARVGPYSWDDSPQDNYYMDVWGKGTTVIVSS VL: ELTQSPGTLSLSPGERATFSCRSSHQLDGSRVAWYQHKPGQAPRLVIHGVSNRASGISDRFSGSGSGTDFTLTITRVEPEDFALYYCQQYGWPFYTFGQGTKLERKR
Output: 2.08
